These entries and their values trace back to PubChem BioAssay AID1117319.

Please respond with reported inhibition for every item in the list.
SYSTEM: Virion infectivity factor (Human immunodeficiency virus type 1 group M subtype B (isolate BH10)) + Virion infectivity factor (Human immunodeficiency virus type 1 group M subtype B (isolate BRU/LAI)) + Virion infectivity factor (Human immunodeficiency virus type 1 group M subtype B (isolate PCV12)) + Virion infectivity factor (Human immunodeficiency virus type 1 group M subtype B (isolate HXB2)) + DNA dC->dU-editing enzyme APOBEC-3G (Homo sapiens) (UniProt P69720+P69721+P69722+P69723+Q9HC16)
EXPERIMENT DESCRIPTION: inhibitors of Vif binding to APOBEC3G peptide, primary screen, biochemical, TR-FRET, GST-Vif 1-94, biotin-A3G peptide, dose response retest (AID 1117319);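 note: Vif residues 1-94 fused to GST binding biotinylated APOBEC3G peptide 110-148; 0% = full assay without inhibitor and 100% = GST in place of GST-Vif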
COND: stronger effect = higher value
Among all 260,000 compounds or so, about 1,500 (0.58%) were called active. Roughly 5% stayed inconclusive and do not appear here. Not all results are given here. Measured potencies and affinities stand elsewhere.
Numbers only, in %.

Example cases with answers are listed next.
| SMI | inhibition / % |
| --- | --- |
| COc1ccc(CC(=O)N(C)C2CCCCC2)cc1S(=O)(=O)N1CCOCC1 | 1.22 |
| COc1ccc(CC(=O)Nc2ccc(S(=O)(=O)Nc3cc(C)nc(C)n3)cc2)cc1OC | -3.26 |
| c1ccc(Cc2nnc3n2CCCCC3)cc1 | -1.19 |
| O=C(CCS(=O)(=O)c1ccc(Cl)cc1)N1CCN(c2ccc(F)cc2)CC1 | -4.61 |

Consider the record given below.
Asked: inhibition for O=C(CCS(=O)(=O)c1ccc(Br)cc1)N1CCN(c2ccc(Cl)cc2)CC1 ?
Given back: 5.94

---

SYSTEM: Virion infectivity factor (Human immunodeficiency virus type 1 group M subtype B (isolate BH10)) + Virion infectivity factor (Human immunodeficiency virus type 1 group M subtype B (isolate BRU/LAI)) + Virion infectivity factor (Human immunodeficiency virus type 1 group M subtype B (isolate PCV12)) + Virion infectivity factor (Human immunodeficiency virus type 1 group M subtype B (isolate HXB2)) + DNA dC->dU-editing enzyme APOBEC-3G (Homo sapiens) (UniProt P69720+P69721+P69722+P69723+Q9HC16)
EXPERIMENT DESCRIPTION: inhibitors of Vif binding to APOBEC3G peptide, primary screen, biochemical, TR-FRET, GST-Vif 1-94, biotin-A3G peptide, dose response retest (AID 1117319);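 note: Vif residues 1-94 fused to GST binding biotinylated APOBEC3G peptide 110-148; 0% = full assay without inhibitor and 100% = GST in place of GST-Vif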
COND: stronger effect = higher value
About 1,500 (0.58%) of roughly 260,000 compounds were called active. About 5% were inconclusive and are not listed. These entries were drawn from the full list. Measured potencies and affinities stand elsewhere.
ENDPOINT LABEL: inhibition (%)
Give bare numbers, in %.

Example cases with answers are listed next.
| MOLECULE | UNITS | MEASURED RESULT |
| --- | --- | --- |
| FC(F)(F)c1cc(-c2ccco2)nc(NCc2ccccc2)n1 | % | 15.6 |
| CCCCOc1ccc(S(=O)(=O)Nc2cc(OC)ccc2OC)cc1 | % | 1.88 |
| CC(C)(C)c1ccc(C(=O)C2CCCN(C(=O)CN3CCCC3=O)C2)cc1 (configuration not stated) | % | -3.41 |

Give inhibition for each of the items listed below.
1. O=C1NC(=S)SC1=Cc1ccccc1Cl
2. Cc1ccn2c(/C=N/OCc3ccc(F)cc3)c(-c3ccc(Cl)cc3)nc2c1
3. NC(=O)C1CCN(c2ccc([N+](=O)[O-])cc2Cl)CC1
4. O=[N+]([O-])c1ccc(N2CCN(c3ccccc3O)CC2)c(Cl)c1
5. Cc1cccc2c1NC(=O)C2=O
6. CC1(C)Cc2ccccc2C2CC(O)C(=O)N21 (configuration not stated)

Given back:
1.68
-1.15
12.1
-0.29
32.4
4.18
